Task for the reader: assign each of the following molecules its reported melting point.

>  <MOLECULE>
CCC(=O)Nc1c(-c2c(F)cc(F)cc2F)c(Cl)nc2ncnn12

>  <melting point>
162 to 165 °C

$$$$
>  <MOLECULE>
CCOC(=O)C1=C(CCl)NC(C)=C(C(=O)OC)C1c1cccc([N+](=O)[O-])c1 (stereo not given)

>  <melting point>
119 to 120 °C

$$$$
>  <MOLECULE>
CC(C)(Cc1ccccc1)C(NC(=O)c1ccc(Cl)cc1)Nc1c(Nc2cccnc2)c(=O)c1=O (stereo not given)

>  <melting point>
223 to 224 °C

$$$$

Please go through the list and note melting point for each molecule.
1. O=C1OC(=O)C2CC(=C(F)F)CC12 (stereo not given)
2. CC(O)(CC(=O)O)c1ccc(-c2ccc(F)cc2F)cc1 (stereo not given)

Marked response:
1. 140 to 145 °C
2. 121 to 123 °C
